assay: Percent of unbound ligand in female rat at 1 mg/kg, iv and po; type: ADME, organism-based; set-up: dose 1 mg/kg, route oral; conditions: in vivo
MEASURED_ATTRIBUTE: Fu (%)
Report the value in % with no unit label.

The reported Fu of the compound CCC[C@H](CC1(C(=O)Nc2nnc(CC)s2)CCCC1)C(=O)O was 13

###

assay: Tmax in female rat at 1 mg/kg, iv and po; format: ADME, organism-based; parameters: dose 1 mg/kg, route oral; details: in vivo
MEASURED_ATTRIBUTE: Tmax (h)
// return numeric value only (unit: h, not printed)

GET /value?item= CCC[C@H](CC1(C(=O)Nc2nnc(CC)s2)CCCC1)C(=O)O &field=Tmax returns 1

###

This listing pairs molecules with measured half-life at 1 µM.
test: Stability in human liver microsome at 1 uM in presence of 0.5 uM CYP; type: ADME; settings: liver microsomes, read-out: Stability

CCC[C@H](CC1(C(=O)Nc2nnc(C)s2)CCCC1)C(=O)O :: > 2 h
CCC[C@H](CC1(C(=O)Nc2nnc(CC)s2)CCCC1)C(=O)O :: > 2 h

Now for another entry.
Input CCC[C@H](CC1(C(=O)NC2(CO)Cc3ccccc3C2)CCCC1)C(=O)O . Output half-life at 1 µM: 1.03 h

###

assay: Oral bioavailability in male rat at 1 mg/kg, iv and po; type: ADME, organism-based; conditions: in vivo
MEASURED_ATTRIBUTE: bioavailability
Kindly write the number and append the unit.

Examples from the recorded data:
CCCC(CC1(C(=O)NC2(CO)Cc3ccccc3C2)CCCC1)C(=O)O (racemic) :: 108%
CCC[C@H](CC1(C(=O)Nc2nnc(CC)s2)CCCC1)C(=O)O :: 103%

# evaluate next
The reported value for CCC[C@H](CC1(C(=O)NC2(CO)Cc3ccccc3C2)CCCC1)C(=O)O in terms of bioavailability is 144%

###

assay: Oral bioavailability in female rat at 1 mg/kg, iv and po; assay type: ADME, organism-based; details: in vivo
MEASURED_ATTRIBUTE: bioavailability (%)
I only need the number, in %, no unit after it.

GET /value?item= CCC[C@H](CC1(C(=O)Nc2nnc(CC)s2)CCCC1)C(=O)O &field=bioavailability returns 131

###

assay: Lipophilicity, LogD at pH 7.4; type: physicochemical; conditions: buffer
The entries below come with measured logD values attached.
When you answer, write just the number.

Example cases with answers are listed next.
CCCC(CC1(C(=O)Nc2nnc(CC)s2)CCCC1)C(=O)O (racemic) :: 0.5
CCCC(CC1(C(=O)Nc2nnc(C)s2)CCCC1)C(=O)O (racemic) :: 0.1

Entry CCCC(CC1(C(=O)NC2(CO)Cc3ccccc3C2)CCCC1)C(=O)O (racemic) ; logD = 1.1

###

experiment: Cmax in male rat at 1 mg/kg, iv and po; type: ADME, organism-based; parameters: dose 1 mg/kg, route oral; conditions: in vivo
MEASURED_ATTRIBUTE: Cmax (ng/mL)
Field: numeric (ng/mL). Do not append units.

CCC[C@H](CC1(C(=O)Nc2nnc(CC)s2)CCCC1)C(=O)O :: 1180
CCCC(CC1(C(=O)NC2(CO)Cc3ccccc3C2)CCCC1)C(=O)O (racemic) :: 311

Now for a further molecule.
get_value(item= CCC[C@H](CC1(C(=O)NC2(CO)Cc3ccccc3C2)CCCC1)C(=O)O , readout=Cmax) returns 233
